# Tested on: L5178Y
# procedure.details: Cytotoxicity against mouse L5178Y cells by MTT assay
# Format: functional, cell-based
readout.label: IC50 (nM)
// note: answer is a bare numeric in nM

Exam item: IC50 for CCCCCC[C@@H](C)/C=C(C)/C=C/C(=O)N[C@H]1CC2(C=C(Cl)C(=O)C(Cl)=C2)OC1O (some centres undefined) ?
Marked response: 640

Exam item: IC50 for CCCCCC[C@@H](C)/C=C(C)/C=C/C(=O)N[C@H]1C[C@]2(OC1O)[C@@H]1O[C@@H]1C(=O)[C@@H]1O[C@@H]12 (some centres undefined) ?
Marked response: 580

Exam item: IC50 for `CCCCCC[C@@H](C)/C=C(C)/C=C/C(=O)N[C@H]1C[C@]2(O[C@H]1OC)[C@@H]1O[C@@H]1C(=O)[C@@H]1O[C@@H]12` ?
Marked response: 440

Exam item: IC50 for `CCCCCC[C@@H](C)/C=C(C)/C=C/C(=O)N[C@H]1C[C@]2(C=C(Cl)C(=O)[C@H](Cl)[C@H]2O)O[C@H]1OC` ?
Marked response: 5800
